- Target entity: T1, human GIP receptor (human, UniProt P48546 22-466)
- T1 sequence (looked up): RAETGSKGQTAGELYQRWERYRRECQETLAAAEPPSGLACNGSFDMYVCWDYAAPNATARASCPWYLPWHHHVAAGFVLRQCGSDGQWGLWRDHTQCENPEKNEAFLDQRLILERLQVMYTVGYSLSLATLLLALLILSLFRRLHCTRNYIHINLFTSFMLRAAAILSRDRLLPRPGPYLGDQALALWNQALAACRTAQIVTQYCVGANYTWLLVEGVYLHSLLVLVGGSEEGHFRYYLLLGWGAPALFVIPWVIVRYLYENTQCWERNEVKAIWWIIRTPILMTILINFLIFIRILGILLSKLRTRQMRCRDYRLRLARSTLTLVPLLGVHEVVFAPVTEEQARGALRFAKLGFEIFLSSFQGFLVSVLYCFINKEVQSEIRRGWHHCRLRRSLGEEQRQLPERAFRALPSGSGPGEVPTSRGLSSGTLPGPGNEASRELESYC
- Assay notes: cell-based or functional assay
*1 amine or outer side, *2 acyl side, *3 side chain or, on linkers, in order; H or OH if unused. Where no end group is shown, it is not given here. Side-chain parts run from the residue outwards. [ ]: non-standard residue; d: D form. The star is where a group is joined. αMePhe(2-F) = C[C@](N)(Cc1ccccc1F)C(=O)O; γGlu = O=C(O)[C@H](CCC(=O)[*:2])N[*:1]; C14 diacid = O=C(O)CCCCCCCCCCCCC(=O)*; αMeY = C[C@](N)(Cc1ccc(O)cc1)C(=O)O; αMeF = C[C@](N)(Cc1ccccc1)C(=O)O; αMeL = CC(C)C[C@](C)(N)C(=O)O; Orn = NCCC[C@H](N)C(=O)O; AEEA = NCCOCCOCC(=O)O; Aib = CC(C)(N)C(=O)O
cAMP EC50 (1.0% HSA) values by entry
Test readout: cAMP EC50 (1.0% HSA) (nM)

>>> numeric_value("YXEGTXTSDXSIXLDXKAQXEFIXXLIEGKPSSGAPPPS (Aib2, αMeF(2F)6, 4Pal10, αMeL13, Orn16, Aib20, D-Glu24, αMeY25; acylated K17, K30 (groups as in name); C-terminal amide)")
0.444
>>> numeric_value("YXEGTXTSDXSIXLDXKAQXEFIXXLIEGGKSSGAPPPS (Aib2, αMeF6, αMeF10, αMeL13, Orn16, Aib20, D-Glu24, αMeY25; acylated K17, K31 (groups as in name); C-terminal amide)")
13.7
>>> numeric_value("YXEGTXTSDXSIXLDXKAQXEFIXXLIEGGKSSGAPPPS (Aib2, αMeF(2F)6, Ac5c10, αMeL13, Orn16, Aib20, D-Glu24, αMeY25; acylated K17, K31 (groups as in name); C-terminal amide)")
3.53
>>> numeric_value("YXEGTXTSDXSIXLDXKAQXEFIGXLIEGGKSSGAPPPS (Aib2, αMeF(2F)6, 4Pal10, αMeL13, Orn16, Aib20, αMeY25; acylated K17, K31 (groups as in name); C-terminal amide)")
0.52
>>> numeric_value("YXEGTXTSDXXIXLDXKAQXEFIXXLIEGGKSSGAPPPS (Aib2, αMeF(2F)6, 4Pal10, Aib11, αMeL13, Orn16, Aib20, D-Glu24, αMeY25; acylated K17, K31 (groups as in name); C-terminal amide)")
1.49
>>> numeric_value("YXEGTXTSDXSKXLDXKAQXEFIXXLIEGGPSSGAPPPS (Aib2, αMeF(2F)6, 4Pal10, αMeL13, Orn16, Aib20, D-Glu24, αMeY25; acylated K12, K17 (groups as in name); C-terminal amide)")
2.08
>>> numeric_value("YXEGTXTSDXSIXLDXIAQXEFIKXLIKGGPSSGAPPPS (Aib2, αMeF(2F)6, 4Pal10, αMeL13, Orn16, Aib20, αMeY25; acylated K24, K28 (groups as in name); C-terminal amide)")
1.73
>>> numeric_value("YXEGTXTSDXSIXLDXKAQXEFIXXLIXGGKSSGAPPPS (Aib2, αMeF(2F)6, 4Pal10, αMeL13, Orn16, Aib20, D-Glu24, αMeY25, Orn28; acylated K17, K31 (groups as in name); C-terminal amide)")
0.306
>>> numeric_value("Y[Aib]EGT[αMePhe(2-F)]TSDV[Aib]I[αMeL]LD[Orn]K([AEEA-AEEA-γGlu-C14 diacid])AQ[Aib]E[αMeF]I[dE][αMeY]LIEGGK([AEEA-AEEA-γGlu-C14 diacid])SSGAPPPS-NH2")
5.58
>>> numeric_value("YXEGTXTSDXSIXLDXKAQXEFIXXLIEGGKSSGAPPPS (Aib2, αMeF(2F)6, 1Nal10, αMeL13, Orn16, Aib20, D-Glu24, αMeY25; acylated K17, K31 (groups as in name); C-terminal amide)")
6.75
>>> numeric_value("YXEGTXTSDXSIXLDXKAQXXFIXXLIEGGKSSGAPPPS (Aib2, αMeF(2F)6, 4Pal10, αMeL13, Orn16, Aib20, Orn21, D-Glu24, αMeY25; acylated K17, K31 (groups as in name); C-terminal amide)")
0.35
>>> numeric_value("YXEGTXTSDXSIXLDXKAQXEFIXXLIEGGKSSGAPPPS (Aib2, αMeF(2F)6, ChG10, αMeL13, Orn16, Aib20, D-Glu24, αMeY25; acylated K17, K31 (groups as in name); C-terminal amide)")
5.49
